Origin of measurements: paper PMC6467542

Form field: hERG % inhibition at 3 µM (one value per entry).
- target_entity: UniProt Q12809
- Sequence (Q12809 whole entry): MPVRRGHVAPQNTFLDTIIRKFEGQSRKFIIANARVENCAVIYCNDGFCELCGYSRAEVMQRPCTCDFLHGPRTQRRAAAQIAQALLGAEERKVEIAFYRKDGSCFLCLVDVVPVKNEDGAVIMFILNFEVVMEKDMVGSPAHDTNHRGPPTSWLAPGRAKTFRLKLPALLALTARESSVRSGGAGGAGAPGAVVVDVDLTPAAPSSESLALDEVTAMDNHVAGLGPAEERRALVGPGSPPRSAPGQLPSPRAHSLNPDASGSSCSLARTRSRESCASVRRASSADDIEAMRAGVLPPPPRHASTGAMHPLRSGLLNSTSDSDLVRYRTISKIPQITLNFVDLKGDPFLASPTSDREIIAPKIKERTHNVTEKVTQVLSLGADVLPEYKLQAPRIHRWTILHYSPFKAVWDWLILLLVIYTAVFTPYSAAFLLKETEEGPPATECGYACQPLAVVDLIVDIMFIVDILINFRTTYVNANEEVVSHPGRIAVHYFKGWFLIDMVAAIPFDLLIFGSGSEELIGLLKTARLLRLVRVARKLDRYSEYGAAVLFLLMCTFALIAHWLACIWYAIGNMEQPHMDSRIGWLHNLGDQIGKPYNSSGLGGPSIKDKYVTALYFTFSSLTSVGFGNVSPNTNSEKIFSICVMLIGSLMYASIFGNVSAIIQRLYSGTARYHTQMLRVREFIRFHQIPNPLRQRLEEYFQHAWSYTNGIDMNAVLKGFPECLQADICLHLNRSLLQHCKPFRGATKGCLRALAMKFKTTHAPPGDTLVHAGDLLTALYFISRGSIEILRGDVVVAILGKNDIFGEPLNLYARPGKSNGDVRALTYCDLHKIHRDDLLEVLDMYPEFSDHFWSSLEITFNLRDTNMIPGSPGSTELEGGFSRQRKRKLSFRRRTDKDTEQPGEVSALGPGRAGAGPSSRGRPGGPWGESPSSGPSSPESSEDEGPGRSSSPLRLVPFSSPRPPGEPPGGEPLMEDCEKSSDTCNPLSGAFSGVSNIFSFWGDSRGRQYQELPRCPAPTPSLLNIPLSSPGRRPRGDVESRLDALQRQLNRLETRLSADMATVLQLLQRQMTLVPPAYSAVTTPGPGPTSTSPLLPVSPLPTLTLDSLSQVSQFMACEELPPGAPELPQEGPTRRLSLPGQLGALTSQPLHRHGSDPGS
- experiment_notes: Inhibition of hERG potassium current (patch clamp electrophysiology)
- setup_conditions: 3 µM; manual or (less accurate) QPatch assay
Give your result in %/3 as a bare value.

Example entries and their recorded answers appear below.
COc1cccc(C(c2cc3cc(C#N)ccc3nc2OC)C(O)(CCN(C)C)c2cc(C)nc(C)c2)c1F (stereo not shown)
37
COc1cccc(C(c2cc3cc(Br)ccc3nc2OC)C(O)(CCN(C)C)c2cccc(C)n2)c1F (stereo not shown)
34
COc1nc2ccc(Br)cc2cc1C(c1cccc(C)c1)C(O)(CCN(C)C)c1cccnc1C (stereo not shown)
26
COc1cccc(C(c2cc3cc(Br)ccc3nc2OC)C(O)(CCN(C)C)c2ccc(C)nc2)c1F (stereo not shown)
17
CCc1cc(C(O)(CCN(C)C)C(c2cc3cc(Br)ccc3nc2OC)c2cccc(OC)c2F)cc(CC)n1 (stereo not shown)
63
COc1nc2ccc(Br)cc2cc1C(c1cccc2c1OCO2)C(O)(CCN(C)C)c1cccnc1C (stereo not shown)
13

// field: hERG % inhibition at 3 µM; key: COc1nc2ccc(Br)cc2cc1C(c1cccc2c1OCO2)C(O)(CCN(C)C)c1cccnc1OC (stereo not shown) ; value = 26

====

- experiment_notes: in vitro
- setup_conditions: mouse, microsomes
Form field: microsomal CLint (one value per entry).
Give your result in µL/min/mg as a bare value.

COc1cccc(C(c2cc3cc(Br)ccc3nc2OC)C(O)(CCN(C)C)c2cccc(C)n2)c1F (stereo not shown) [Compound 4]
39
CCc1cc(C(O)(CCN(C)C)C(c2cc3cc(C#N)ccc3nc2OC)c2cccc(OC)c2F)cc(CC)n1 (stereo not shown) [Compound 59]
27
COc1cc(C(O)(CCN(C)C)C(c2cc3cc(Br)ccc3nc2OC)c2cccc(OC)c2F)c(OC)cn1 (stereo not shown) [Compound 60]
25

API: the following record is the query input.
// field: microsomal CLint; key: COc1cnc(OC)c(C(O)(CCN(C)C)C(c2cc3cc(Br)ccc3nc2OC)c2cccc(OC)c2F)c1 (stereo not shown) [Compound 46] ; value = 53

====

Form field: F: oral bioavailability (one value per entry).
- setup_conditions: mouse, in vivo, po
Give your result in % as a bare value.

COc1cccc(C(c2cc3cc(Br)ccc3nc2OC)C(O)(CCN(C)C)c2cnc(C)cc2C)c1OC (stereo not drawn) [Compound 38]
34

// field: F: oral bioavailability; key: COc1nc2ccc(Br)cc2cc1C(c1cccc2c1OCO2)C(O)(CCN(C)C)c1cccnc1OC (stereo not drawn) [Compound 41] ; value = 46

// field: F: oral bioavailability; key: COc1cccc(C(O)(CCN(C)C)C(c2cc3cc(Br)ccc3nc2OC)c2cccc3c2OCO3)n1 (stereo not drawn) [Compound 15] ; value = 45

// field: F: oral bioavailability; key: COc1cccc(C(c2cc3cc(C#N)ccc3nc2OC)C(O)(CCN(C)C)c2cc(C)nc(C)c2)c1F (stereo not drawn) [Compound 55] ; value = 25

// field: F: oral bioavailability; key: COc1cccc(C(c2cc3cc(Br)ccc3nc2OC)C(O)(CCN(C)C)c2ccc(C)nc2)c1F (stereo not drawn) [Compound 22] ; value = 8

// field: F: oral bioavailability; key: COc1cccc(C(c2cc3cc(C#N)ccc3nc2OC)C(O)(CCN(C)C)c2cc(C)nc(C)c2)c1OC (stereo not drawn) [Compound 57] ; value = 54

====

- experiment_notes: in vitro
- setup_conditions: human, microsomes
Note to self: microsomal CLint under 10 µL/min/mg means true (1), ties and anything higher get false (0).

Worked examples, 3 molecules total:
COc1nc2ccc(Br)cc2cc1C(c1cccc2c1OCO2)C(O)(CCN(C)C)c1cccnc1OC (stereo not drawn) [Compound 41]
false (0)
COc1cnc(OC)c(C(O)(CCN(C)C)C(c2cc3cc(Br)ccc3nc2OC)c2cccc(OC)c2F)c1 (stereo not drawn) [Compound 46]
true (1)
COc1cccc(C(c2cc3cc(Br)ccc3nc2OC)C(O)(CCN(C)C)c2ccc(C)nc2)c1F (stereo not drawn) [Compound 22]
false (0)

*Q* # check: microsomal CLint < 10 µL/min/mg for CCc1cc(C(O)(CCN(C)C)C(c2cc3cc(Br)ccc3nc2OC)c2cccc(OC)c2F)cc(CC)n1 (stereo not drawn) [Compound 58]
*A* true (1)

*Q* # check: microsomal CLint < 10 µL/min/mg for COc1nc2ccc(Br)cc2cc1C(c1cccc2c1OCO2)C(O)(CCN(C)C)c1cccnc1C (stereo not drawn) [Compound 21]
*A* false (0)

*Q* # check: microsomal CLint < 10 µL/min/mg for COc1cccc(C(O)(CCN(C)C)C(c2cc3cc(Br)ccc3nc2OC)c2cccc3c2OCO3)n1 (stereo not drawn) [Compound 15]
*A* true (1)

*Q* # check: microsomal CLint < 10 µL/min/mg for COc1nc2ccc(Br)cc2cc1C(c1cccc(C)c1)C(O)(CCN(C)C)c1cccnc1C (stereo not drawn) [Compound 19]
*A* false (0)

*Q* # check: microsomal CLint < 10 µL/min/mg for COc1cccc(C(c2cc3cc(Br)ccc3nc2OC)C(O)(CCN(C)C)c2cc(C)cnc2C)c1OC (stereo not drawn) [Compound 33]
*A* true (1)

====

- experiment_notes: in vivo
- setup_conditions: mouse, iv
endpoint_label: clearance

Example entries and their recorded answers appear below.
COc1cccc(C(c2cc3cc(C#N)ccc3nc2OC)C(O)(CCN(C)C)c2cc(C)nc(C)c2)c1F (centres unmarked)
> 50 mL/min/kg
COc1cccc(C(c2cc3cc(Br)ccc3nc2OC)C(O)(CCN(C)C)c2cc(C)cnc2C)c1OC (centres unmarked)
> 50 mL/min/kg
COc1cccc(C(c2cc3cc(Br)ccc3nc2OC)C(O)(CCN(C)C)c2ccc(C)nc2)c1F (centres unmarked)
> 50 mL/min/kg
COc1nc2ccc(Br)cc2cc1C(c1cccc(C)c1)C(O)(CCN(C)C)c1cccnc1C (centres unmarked)
> 50 mL/min/kg

// field: clearance; key: COc1cccc(C(c2cc3cc(C#N)ccc3nc2OC)C(O)(CCN(C)C)c2cc(C)nc(C)c2)c1OC (centres unmarked) ; value = > 50 mL/min/kg

====

- experiment_notes: in vitro
- setup_conditions: human, microsomes
endpoint_label: microsomal CLint (µL/min/mg)
Give your result in µL/min/mg as a bare value.

// field: microsomal CLint; key: COc1nc2ccc(C#N)cc2cc1C(c1cccc(C)c1)C(O)(CCN(C)C)c1cccnc1OC (centres unmarked) [Compound 40] ; value = 11

// field: microsomal CLint; key: COc1cc(C(O)(CCN(C)C)C(c2cc3cc(Br)ccc3nc2OC)c2cccc(OC)c2F)c(OC)cn1 (centres unmarked) [Compound 60] ; value = 7

// field: microsomal CLint; key: COc1cccc(C(c2cc3cc(Br)ccc3nc2OC)C(O)(CCN(C)C)c2cccc(C)n2)c1F (centres unmarked) [Compound 4] ; value = 10

// field: microsomal CLint; key: COc1cc(C(O)(CCN(C)C)C(c2cc3cc(Br)ccc3nc2OC)c2ccnc(OC)c2OC)c(OC)nc1OC (centres unmarked) [Compound 49] ; value = 5

// field: microsomal CLint; key: COc1cccc(C(c2cc3cc(Br)ccc3nc2OC)C(O)(CCN(C)C)c2cnc(C)cc2C)c1OC (centres unmarked) [Compound 38] ; value = 13

====

- Test system: M.tb
- experiment_notes: Efficacy in a mouse model of TB (lung CFU reduction)
- Assay type: in vivo
- setup_conditions: Mycobacterium tuberculosis, inhaled or nasal, 288 h; read-out: Log reduction in colony-forming units (CFU), new compound
Note to self: log reduction at 20 mg/kg under 2 means Yes, ties and anything higher get No.

COc1nc2ccc(C#N)cc2cc1C(c1cccc(C)c1)C(O)(CCN(C)C)c1cccnc1OC (centres unmarked)
Yes
COc1nc2ccc(Br)cc2cc1C(c1cccc(C)c1)C(O)(CCN(C)C)c1cccnc1OC (centres unmarked)
Yes

*Q* # check: log reduction at 20 mg/kg < 2 for COc1cccc(C(c2cc3cc(C#N)ccc3nc2OC)C(O)(CCN(C)C)c2cc(C)nc(C)c2)c1OC (centres unmarked)
*A* Yes

*Q* # check: log reduction at 20 mg/kg < 2 for COc1cccc(C(c2cc3cc(Br)ccc3nc2OC)C(O)(CCN(C)C)c2cc(C)cnc2C)c1OC (centres unmarked)
*A* No

*Q* # check: log reduction at 20 mg/kg < 2 for COc1cccc(C(O)(CCN(C)C)C(c2cc3cc(Br)ccc3nc2OC)c2cccc3c2OCO3)n1 (centres unmarked)
*A* Yes

====

- setup_conditions: mouse, in vivo, iv
Form field: IV Cl: IV clearance (one value per entry).
Give your result in mL/min/kg as a bare value.

COc1cc(C(O)(CCN(C)C)C(c2cc3cc(Br)ccc3nc2OC)c2ccnc(OC)c2OC)cnc1OC (stereo not shown) [Compound 48]
19
COc1cc(C(O)(CCN(C)C)C(c2cc3cc(Br)ccc3nc2OC)c2ccnc(OC)c2OC)c(OC)nc1OC (stereo not shown) [Compound 49]
10
COc1cccc(C(c2cc3cc(C#N)ccc3nc2OC)C(O)(CCN(C)C)c2cc(C)nc(C)c2)c1OC (stereo not shown) [Compound 57]
71
CCOc1cc(C(O)(CCN(C)C)C(c2cc(OC)nc(OC)c2)c2cc3cc(Br)ccc3nc2OC)cc(OC(C)C)n1 (stereo not shown) [Compound 62]
3
COc1nc2ccc(Br)cc2cc1C(c1cccc2c1OCO2)C(O)(CCN(C)C)c1cccnc1OC (stereo not shown) [Compound 41]
27

// field: IV Cl: IV clearance; key: COc1nc2ccc(Br)cc2cc1C(c1cccc2c1OCO2)C(O)(CCN(C)C)c1cccnc1C (stereo not shown) [Compound 21] ; value = 44

// field: IV Cl: IV clearance; key: COc1nc2ccc(Br)cc2cc1C(c1cccc(C)c1)C(O)(CCN(C)C)c1cccnc1C (stereo not shown) [Compound 19] ; value = 59

// field: IV Cl: IV clearance; key: COc1cccc(C(c2cc3cc(Br)ccc3nc2OC)C(O)(CCN(C)C)c2ccc(C)nc2)c1F (stereo not shown) [Compound 22] ; value = 67

// field: IV Cl: IV clearance; key: COc1cccc(C(c2cc3cc(Br)ccc3nc2OC)C(O)(CCN(C)C)c2cc(C)cnc2C)c1OC (stereo not shown) [Compound 33] ; value = 79
